All values here come from the Kinase Knowledgebase extract (Sharma et al. 2016).

target_desc: UniProt:P24941
pKi: −log10 of the molar value.
Please mark true if the recorded pKi is equal to or greater than 6, and false if it falls below.

[[record]]
smiles_record = "COc1ccccc1Nc1nccc(-c2sc(=O)n(C)c2C)n1"
category_label = "false"

[[record]]
smiles_record = "COc1cc(Cl)ccc1Nc1nccc(-c2sc(=O)n(C)c2C)n1"
category_label = "false"

[[record]]
smiles_record = "COc1ccc(Nc2nccc(-c3sc(=O)n(C)c3C)n2)c(OC)c1"
category_label = "false"


Ask: // inclusive: pKi at least 6? input: Cc1cc(F)ccc1Nc1nccc(-c2sc(=O)n(C)c2C)n1
Result: true

Ask: // inclusive: pKi at least 6? input: CC(=O)c1cccc(Nc2nccc(-c3sc(=O)n(C)c3C)n2)c1
Result: true

Ask: // inclusive: pKi at least 6? input: Cc1cccc(Nc2nccc(-c3sc(=O)n(C)c3C)n2)c1
Result: true

Ask: // inclusive: pKi at least 6? input: Cc1ccccc1Nc1nccc(-c2sc(=O)n(C)c2C)n1
Result: true

Ask: // inclusive: pKi at least 6? input: Cc1ccc(Nc2nccc(-c3sc(=O)n(C)c3C)n2)cc1
Result: true
